- ASSAY SUMMARY: Drug level in C57BL/6 mouse liver at 0.1 mg/ kg, po after 3 hrs
- Format: ADME, organism-based, C57BL6
- Set-up: dose 0.1 mg/ kg, route oral
- CONDITION SET: read-out: Drug uptake
READOUT: concentration at 3 h (nM)
Give bare numbers, in nM.

Notebook: OCc1nc(-c2cnc(N3CCC(Oc4ccccc4C(F)(F)F)CC3)s2)no1 , concentration at 3 h read as 600

* * *

- ASSAY SUMMARY: AUC (0 to 24 hrs) in C57BL/6 mouse at 10 mg/kg, po
- Assay type: ADME, organism-based, C57BL6
- Parameters: time < 24 hr, dose 10 mg/kg, route oral
- CONDITION SET: plasma
I'd appreciate it if you could supply AUC(0-t) at 24 h values for the items below.
Answers are plain numbers, in µM·h.

Reference set (2 entries):
OCc1nc(-c2cnc(N3CCC(Oc4ccccc4C(F)(F)F)CC3)s2)no1 = 16.8
Cc1nc(-c2cnc(N3CCC(Oc4ccccc4C(F)(F)F)CC3)s2)no1 = 3.5

Proceed to the following item.
Notebook: FC(F)(F)c1ccccc1OC1CCN(c2ncc(-c3ncon3)s2)CC1 , AUC(0-t) at 24 h read as 2.9

* * *

- ASSAY SUMMARY: Plasma concentration in C57BL/6 mouse at 0.3 mg/kg, po dosed QD for 3 days and measured on day 3
- Assay type: ADME, organism-based, C57BL6
- Parameters: dose 0.3 mg/kg, route oral
READOUT: concentration at 72 h (nM)
One number for each entry, in nM.

Notebook: OCc1nc(-c2cnc(N3CCC(Oc4ccccc4C(F)(F)F)CC3)s2)no1 , concentration at 72 h read as 180

* * *

- ASSAY SUMMARY: Drug level in C57BL/6 mouse blood at 0.1 mg/ kg, po after 3 hrs
- Type: ADME, organism-based, C57BL6
- Design: dose 0.1 mg/ kg, route oral
- CONDITION SET: read-out: Drug uptake
READOUT: concentration at 3 h

Notebook: OCc1nc(-c2cnc(N3CCC(Oc4ccccc4C(F)(F)F)CC3)s2)no1 , concentration at 3 h read as < 25 nM

The reported measurements were obtained from ChEMBL document CHEMBL1154928.
